I'd appreciate it if you could supply MIC values for the items below.
Tested on: Enterococcus faecalis ATCC 29212
Assay remarks: Serial dilution microplate MIC
Type: cell-based
Condition details: Enterococcus faecalis, ATCC29212, isolated compounds, Table 2; read-out: Minimum inhibitory concentration (MIC) E. faecalis
Method: The MIC value of the plant extracts and isolated compounds against one fungal and five bacterial strains (Salmonella Typhimurium ATCC 39183, Escherichia coli ATCC 25922, Pseudomonas aeruginosa ATCC 27853, Staphylococcus aureus ATCC 29213, Enterococcus faecalis ATCC 29212, and fungi culture, Candida albicans ATCC 10231) was assessed in triplicate using the serial dilution microplate method; acetone and DMSO were used as solvents. […]
Numbers only, in µg/mL.

Compound | Tgt | Endpoint unit | Assay value
CNC(C)C1CCC(N)C(OC2C(N)CC(N)C(OC3OCC(C)(O)C(NC)C3O)C2O)O1 (centres unmarked) [Gentamicin, reference compound] | Enterococcus faecalis ATCC 29212 | µg/mL | 3.9

Would you kindly look at the next entry?
So for CC[C@@H](CC[C@@H](C)[C@H]1CC[C@H]2[C@@H]3CC=C4C[C@@H](O[C@H]5O[C@@H](CO)[C@H](O)[C@@H](O)[C@@H]5O)CC[C@]4(C)[C@H]3CC[C@]12C)C(C)C [Sitosterol-3-O-β-D-glucopyranoside, sitosterol-3-O-β-D-glucopyranoside] , the logged MIC turned out to be 31.2

----------
Hi there, I'd appreciate the recorded MIC for every entry that follows.
Test system: Salmonella Typhimurium ATCC 39183
Assay remarks: Serial dilution microplate MIC
Type: cell-based
Condition details: Salmonella enterica, isolated compounds, Table 2; read-out: Minimum inhibitory concentration (MIC) S. Typhimurium
One number for each entry, in µg/mL.

Example molecules with recorded MIC:
Molecule | MIC (µg/mL)
CNC(C)C1CCC(N)C(OC2C(N)CC(N)C(OC3OCC(C)(O)C(NC)C3O)C2O)O1 (stereo not drawn) [Gentamicin, reference compound] | 3.9
COc1cc2ccc(=O)oc2c(OC)c1O[C@H]1O[C@@H](CO)[C@H](O)[C@@H](O)[C@@H]1O [Isofraxidin-7-O-β-D-glucopyranoside, isofraxidin-7-O-β-D-glucopyranoside] | 250

Please look at the following molecule next.
Considering `CC1(C)CC[C@]2(C)CC=C3[C@]4(C)CC[C@H]5C(C)(C)[C@@H](O)CC[C@]5(C)[C@H]4CC[C@@]3(C)[C@@H]2C1` , its MIC with Salmonella Typhimurium ATCC 39183 was recorded as 250

----------
Assay remarks: in vitro
Readout name: CC50 at 48 h

Examples with answers:
Molecule | CC50 at 48 h
COc1cc(/C=C/C(=O)O)ccc1O | > 200 µg/mL
CCCCCCCCCCCCOC(=O)/C=C/c1ccc(O)cc1 [Dodecyl-p-coumarate, dodecyl-p-coumarate] | > 200 µg/mL

// field: CC50 at 48 h; key: `COc1cc2ccc(=O)oc2cc1O` ; value = > 200 µg/mL

----------
For each of the compounds below, state its Selectivity index E. faecalis.
System: Enterococcus faecalis ATCC 29212
Assay remarks: Serial dilution microplate MIC
Assay type: cell-based
Condition details: in brackets, Table 2; Vero LC50 vs MIC
Description: The MIC value of the plant extracts and isolated compounds against one fungal and five bacterial strains (Salmonella Typhimurium ATCC 39183, Escherichia coli ATCC 25922, Pseudomonas aeruginosa ATCC 27853, Staphylococcus aureus ATCC 29213, Enterococcus faecalis ATCC 29212, and fungi culture, Candida albicans ATCC 10231) was assessed in triplicate using the serial dilution microplate method; acetone and DMSO were used as solvents. […]

Observe how each entry below is paired with its result.
Compound | Readout name | Assay value
CCCCCCCCCCCCOC(=O)/C=C/c1ccc(O)cc1 [Dodecyl-p-coumarate, dodecyl-p-coumarate] | Selectivity index E. faecalis | > 3.2
CC1(C)CC[C@]2(C)CC=C3[C@]4(C)CC[C@H]5C(C)(C)[C@@H](O)CC[C@]5(C)[C@H]4CC[C@@]3(C)[C@@H]2C1 | Selectivity index E. faecalis | < 0.8
COc1cc(/C=C/C(=O)O)ccc1O | Selectivity index E. faecalis | < 0.8
COc1cc2ccc(=O)oc2c(OC)c1O[C@H]1O[C@@H](CO)[C@H](O)[C@@H](O)[C@@H]1O [Isofraxidin-7-O-β-D-glucopyranoside, isofraxidin-7-O-β-D-glucopyranoside] | Selectivity index E. faecalis | < 0.8

Let us move to another entry and its Selectivity index E. faecalis.
The measured Selectivity index E. faecalis associated with CC[C@@H](CC[C@@H](C)[C@H]1CC[C@H]2[C@@H]3CC=C4C[C@@H](O[C@H]5O[C@@H](CO)[C@H](O)[C@@H](O)[C@@H]5O)CC[C@]4(C)[C@H]3CC[C@]12C)C(C)C [Sitosterol-3-O-β-D-glucopyranoside, sitosterol-3-O-β-D-glucopyranoside] reads > 6.4

----------
Assay remarks: in vitro
Condition details: monkey, LC50
Protocol: Cytotoxicity of compounds and extracts was tested against mammalian cells using the MTT assay. […] At a wavelength of 570 nm, absorbance was measured using a microplate reader (BioTek Synergy, Beijing, China). […]
I'd appreciate it if you could supply CC50 at 48 h values for the items below.

Example entries begin here.
Compound | Readout name | Assay value
CC[C@@H](CC[C@@H](C)[C@H]1CC[C@H]2[C@@H]3CC=C4C[C@@H](O[C@H]5O[C@@H](CO)[C@H](O)[C@@H](O)[C@@H]5O)CC[C@]4(C)[C@H]3CC[C@]12C)C(C)C [Sitosterol-3-O-β-D-glucopyranoside, sitosterol-3-O-β-D-glucopyranoside] | CC50 at 48 h | > 200 mg/L
COc1cc2ccc(=O)oc2c(OC)c1O[C@H]1O[C@@H](CO)[C@H](O)[C@@H](O)[C@@H]1O [Isofraxidin-7-O-β-D-glucopyranoside, isofraxidin-7-O-β-D-glucopyranoside] | CC50 at 48 h | > 200 mg/L

We now examine a further compound.
Short answer for `CC1(C)CC[C@]2(C)CC=C3[C@]4(C)CC[C@H]5C(C)(C)[C@@H](O)CC[C@]5(C)[C@H]4CC[C@@]3(C)[C@@H]2C1` : CC50 at 48 h was > 200 mg/L

----------
Test system: Staphylococcus aureus ATCC 29213
Assay remarks: Serial dilution microplate MIC
Type: cell-based
Condition details: Staphylococcus aureus, ATCC29213, isolated compounds, Table 2; read-out: Minimum inhibitory concentration (MIC) S. aureus
Readout name: MIC (µg/mL)
Answers are plain numbers, in µg/mL.

Molecule | Tgt | MIC / µg/mL
COc1cc2ccc(=O)oc2c(OC)c1O[C@H]1O[C@@H](CO)[C@H](O)[C@@H](O)[C@@H]1O [Isofraxidin-7-O-β-D-glucopyranoside, isofraxidin-7-O-β-D-glucopyranoside] | Staphylococcus aureus ATCC 29213 | 250

Look up MIC for the entries below, preserving their order.
1. COc1cc(/C=C/C(=O)O)ccc1O
2. CC1(C)CC[C@]2(C)CC=C3[C@]4(C)CC[C@H]5C(C)(C)[C@@H](O)CC[C@]5(C)[C@H]4CC[C@@]3(C)[C@@H]2C1
3. CNC(C)C1CCC(N)C(OC2C(N)CC(N)C(OC3OCC(C)(O)C(NC)C3O)C2O)O1 (stereo not drawn) [Gentamicin, reference compound]
4. COc1cc2ccc(=O)oc2cc1O

// result
250
250
3.9
250

----------
Tested on: Enterococcus faecalis ATCC 29212
Assay remarks: Serial dilution microplate MIC
Format: cell-based
Condition details: Enterococcus faecalis, ATCC29212, isolated compounds, Table 2; read-out: Minimum inhibitory concentration (MIC) E. faecalis
Readout name: MIC

Example results:
Molecule | MIC
CC1(C)CC[C@]2(C)CC=C3[C@]4(C)CC[C@H]5C(C)(C)[C@@H](O)CC[C@]5(C)[C@H]4CC[C@@]3(C)[C@@H]2C1 [Compound 3β-Taraxerol, 3β-taraxerol] | > 250 µg/mL
COc1cc(/C=C/C(=O)O)ccc1O [Ferulic acid, ferulic acid] | > 250 µg/mL

As a next step, examine the molecule that follows.
Per the records, this molecule ( COc1cc2ccc(=O)oc2c(OC)c1O[C@H]1O[C@@H](CO)[C@H](O)[C@@H](O)[C@@H]1O [Isofraxidin-7-O-β-D-glucopyranoside, isofraxidin-7-O-β-D-glucopyranoside] ) has MIC equal to > 250 µg/mL

----------
Consider the following compounds; for each one, report its MIC.
Tested on: Salmonella Typhimurium ATCC 39183
Assay remarks: Serial dilution microplate MIC
Format: cell-based
Condition details: Salmonella enterica, isolated compounds, Table 2; read-out: Minimum inhibitory concentration (MIC) S. Typhimurium

Solved cases below.
Compound | Readout name | Assay value
COc1cc(/C=C/C(=O)O)ccc1O | MIC | > 250 µg/mL
CC[C@@H](CC[C@@H](C)[C@H]1CC[C@H]2[C@@H]3CC=C4C[C@@H](O[C@H]5O[C@@H](CO)[C@H](O)[C@@H](O)[C@@H]5O)CC[C@]4(C)[C@H]3CC[C@]12C)C(C)C [Sitosterol-3-O-β-D-glucopyranoside, sitosterol-3-O-β-D-glucopyranoside] | MIC | > 250 µg/mL

Shifting focus to the compound that follows.
Measured MIC, CCCCCCCCCCCCOC(=O)/C=C/c1ccc(O)cc1 [Dodecyl-p-coumarate, dodecyl-p-coumarate] : > 250 µg/mL
